Entries and their Plant response rating, Sedge, Umbrella
System: small-flower umbrella sedge (Cyperus difformis)
test: Test D flooded paddy test plant response
Type: in vivo
reported.conditions: Flood (flooded paddy test), 62 g ai/ha; visual rating on scale 0 to 100 (0 no effect, 100 complete control), 13 to 15 days

>  <compound>
FC(F)c1cc(-c2ccccc2Oc2ncc(Cl)cn2)on1 [Compound 53]

>  <Plant response rating, Sedge, Umbrella>
0

$$$$
>  <compound>
N#Cc1cccc(Oc2ncc(Cl)cn2)c1-c1cc(C(F)F)on1 [Compound 180]

>  <Plant response rating, Sedge, Umbrella>
50

$$$$
>  <compound>
FC(F)(F)Oc1cccc(-c2ccccc2Oc2ncc(Cl)cn2)c1 [Compound 40]

>  <Plant response rating, Sedge, Umbrella>
0

$$$$
>  <compound>
Fc1cccc(Oc2ncc(Br)cn2)c1-c1cc(C(F)F)no1 [Compound 145]

>  <Plant response rating, Sedge, Umbrella>
75

$$$$

====

Test system: pigweed (Amaranthus retroflexus)
test: Test B pre-/postemergence plant response
Assay type: in vivo
reported.conditions: 31 g ai/ha, Preemergence; 0 to 100 scale where 0 is no effect and 100 is complete control

>  <molecule>
Cn1ncnc1-c1ccccc1Oc1ncc(Cl)cn1

>  <Plant response rating, Pigweed>
0

$$$$
>  <molecule>
Fc1ccnc(-c2ccccc2Oc2ncc(Cl)cn2)c1

>  <Plant response rating, Pigweed>
0

$$$$
>  <molecule>
FC(F)(F)COCc1cc(-c2ccccc2Oc2ncc(Br)cn2)on1

>  <Plant response rating, Pigweed>
0

$$$$
>  <molecule>
Cc1cc(-c2c(F)cccc2Oc2ncc(Cl)cn2)on1

>  <Plant response rating, Pigweed>
100

$$$$
>  <molecule>
Brc1cnc(Oc2ccccc2-c2ccns2)nc1

>  <Plant response rating, Pigweed>
0

$$$$

====

Test system: corn (Zea mays)
test: Test D pre-/postemergence plant response
Assay type: in vivo
reported.conditions: Zea mays, post-emergence; Postemergence, 62 g ai/ha; scale 0 to 100, 0 no effect, 100 complete control
measured.endpoint: Corn plant response rating (crop injury, 0 = no effect, 100 = complete kill) at 62 g/ha (%)

>  <molecule>
FC(F)(F)c1cc(-c2ccccc2Oc2ncc(Cl)cn2)no1

>  <recorded.result>
10

$$$$
>  <molecule>
Fc1cccc(Oc2ncc(Br)cn2)c1-c1cc(C(F)F)no1

>  <recorded.result>
5

$$$$
>  <molecule>
Fc1cccc(Oc2ncc(Cl)cn2)c1-c1cc(C(F)F)no1

>  <recorded.result>
10

$$$$
>  <molecule>
FC(F)c1cc(-c2ccccc2Oc2ncc(Cl)cn2)on1

>  <recorded.result>
0

$$$$
>  <molecule>
Fc1cccc(Oc2ncc(Cl)cn2)c1-c1cc(C(F)(F)F)on1

>  <recorded.result>
10

$$$$

====

Tested on: sandbur (southern sandbur, Cenchrus echinatus)
test: Test F pre-/postemergence plant response
Type: in vivo
reported.conditions: 125 g ai/ha Postemergence; scale 0 to 100
Text: […] Treated plants and controls were maintained in a greenhouse for 14 to 21 days, after which time all species were compared to controls and visually evaluated. […]

>  <compound>
Fc1ccc(Oc2ncc(Cl)cn2)c(-c2cc(C(F)F)on2)c1Cl [Compound 96]

>  <Plant response rating, Sandbur>
0

$$$$
>  <compound>
Fc1ccc(Oc2ncc(Cl)cn2)c(-c2cc(C(F)(Cl)Cl)on2)c1 [Compound 221]

>  <Plant response rating, Sandbur>
0

$$$$
>  <compound>
FC(F)c1cc(-c2ccccc2Oc2ncc(Br)cn2)on1 [Compound 212]

>  <Plant response rating, Sandbur>
10

$$$$
>  <compound>
Cc1cc(-c2ccccc2Oc2ncc(Cl)cn2)on1 [Compound 58]

>  <Plant response rating, Sandbur>
10

$$$$

====

Test system: large (Lg) crabgrass (Digitaria sanguinalis)
test: Test B pre-/postemergence plant response
Assay type: in vivo
reported.conditions: Digitaria sanguinalis, post-emergence, 240 h; 125 g ai/ha, postemergence; 0 to 100 scale, 0 no effect, 100 complete control; read-out: Plant response rating, Crabgrass, Large
Some molecules, each annotated with its measured pest or weed control at 125 g/ha.
measured.endpoint: pest or weed control at 125 g/ha (%)

>  <molecule>
FC(F)(F)c1ccc(-c2ccccc2Oc2ncc(Cl)cn2)nc1 [Compound 27]

>  <measured.endpoint>
pest or weed control at 125 g/ha

>  <unit.annotation>
%

>  <recorded.result>
20

$$$$
>  <molecule>
FC(F)c1cc(-c2ccccc2Oc2ncc(Br)cn2)no1 [Compound 62]

>  <measured.endpoint>
pest or weed control at 125 g/ha

>  <unit.annotation>
%

>  <recorded.result>
70

$$$$
>  <molecule>
Cc1ccc(Oc2ncc(Cl)cn2)c(-c2ccc(C(F)(F)F)nc2)c1 [Compound 22]

>  <measured.endpoint>
pest or weed control at 125 g/ha

>  <unit.annotation>
%

>  <recorded.result>
0

$$$$
>  <molecule>
Cc1ccc(Oc2ncc(Cl)cn2)c(-c2ccnc(C(F)(F)F)c2)c1 [Compound 24]

>  <measured.endpoint>
pest or weed control at 125 g/ha

>  <unit.annotation>
%

>  <recorded.result>
80

$$$$
>  <molecule>
FC(F)(F)c1ccnc(-c2ccccc2Oc2ncc(Cl)cn2)c1 [Compound 25]

>  <measured.endpoint>
pest or weed control at 125 g/ha

>  <unit.annotation>
%

>  <recorded.result>
10

$$$$
>  <molecule>
FC(F)(F)c1cnc(Oc2ccccc2-c2cnc(Br)s2)nc1 [Compound 15]

>  <measured.endpoint>
pest or weed control at 125 g/ha

>  <unit.annotation>
%

>  <recorded.result>
10

$$$$

====

Tested on: ragweed (common ragweed, Ambrosia elatior)
test: Test B pre-/postemergence plant response
Format: in vivo
reported.conditions: 31 g ai/ha, Postemergence; 0 to 100 scale, 0 no effect, 100 complete control
Reported Plant response rating, Ragweed is given for each of the following compounds.

>  <molecule>
Fc1ccc(Oc2ncc(Cl)cn2)c(-c2cc(C(F)F)on2)c1F

>  <subject.of.test>
ragweed (common ragweed, Ambrosia elatior)

>  <Plant response rating, Ragweed>
50

$$$$
>  <molecule>
FC(F)c1cc(-c2c(Cl)cccc2Oc2ncc(Cl)cn2)on1

>  <subject.of.test>
ragweed (common ragweed, Ambrosia elatior)

>  <Plant response rating, Ragweed>
40

$$$$
>  <molecule>
COc1cccc(Oc2ncc(Cl)cn2)c1-c1cc(C(F)F)no1

>  <subject.of.test>
ragweed (common ragweed, Ambrosia elatior)

>  <Plant response rating, Ragweed>
20

$$$$
>  <molecule>
Fc1cc(F)c(-c2cc(C(F)F)no2)c(Oc2ncc(Cl)cn2)c1

>  <subject.of.test>
ragweed (common ragweed, Ambrosia elatior)

>  <Plant response rating, Ragweed>
0

$$$$
>  <molecule>
COc1cccc(Oc2ncc(Cl)cn2)c1-c1cc(C)no1

>  <subject.of.test>
ragweed (common ragweed, Ambrosia elatior)

>  <Plant response rating, Ragweed>
30

$$$$
>  <molecule>
Cn1ncnc1-c1ccccc1Oc1ncc(Cl)cn1

>  <subject.of.test>
ragweed (common ragweed, Ambrosia elatior)

>  <Plant response rating, Ragweed>
0

$$$$
>  <molecule>
CCOC(OCC)c1cc(-c2ccccc2Oc2ncc(Cl)cn2)on1

>  <subject.of.test>
ragweed (common ragweed, Ambrosia elatior)

>  <Plant response rating, Ragweed>
0

$$$$

====

Listed here: items and their measured pest or weed control at 31 g/ha.
Tested on: wild mustard (Sinapis arvensis)
test: Test E pre-/postemergence plant response
Format: in vivo
reported.conditions: Brassica, pre-emergence; 31 g ai/ha, Preemergence; scale 0 to 100; read-out: Plant response rating, Mustard, Wild
measured.endpoint: pest or weed control at 31 g/ha (%)

>  <compound>
FC(F)c1cc(-c2ccccc2Oc2ncc(Cl)cn2)on1 [Compound 53]

>  <unit.annotation>
%

>  <recorded.result>
100

$$$$
>  <compound>
FC(F)c1cc(-c2ccccc2Oc2ncc(Cl)cn2)no1 [Compound 35]

>  <unit.annotation>
%

>  <recorded.result>
60

$$$$
>  <compound>
FC(F)c1cc(-c2ccccc2Oc2ncc(Br)cn2)no1 [Compound 62]

>  <unit.annotation>
%

>  <recorded.result>
80

$$$$
>  <compound>
Fc1cccc(Oc2ncc(Cl)cn2)c1-c1cc(C(F)F)no1 [Compound 144]

>  <unit.annotation>
%

>  <recorded.result>
100

$$$$

====

System: blackgrass (Alopecurus myosuroides)
test: Test D pre-/postemergence plant response
Format: in vivo
reported.conditions: Preemergence; 62 g ai/ha; scale 0 to 100 (0 no effect, 100 complete control)

>  <molecule>
Cc1cc(-c2ccccc2Oc2ncc(Cl)cn2)no1 [Compound 60]

>  <Plant response rating, Blackgrass>
10

$$$$
>  <molecule>
FC(F)Oc1cccc(Oc2ncc(Cl)cn2)c1-c1cc(C(F)F)on1 [Compound 131]

>  <Plant response rating, Blackgrass>
90

$$$$
>  <molecule>
FCc1cc(-c2c(F)cccc2Oc2ncc(Cl)cn2)no1 [Compound 57]

>  <Plant response rating, Blackgrass>
50

$$$$
>  <molecule>
Cc1cc(-c2c(F)cccc2Oc2ncc(Cl)cn2)on1 [Compound 229]

>  <Plant response rating, Blackgrass>
70

$$$$
